Experiment: Water solubility noted at synthesis
Type: physicochemical
Settings: crystal obtained in Example 1
parameter measured: solubility in water

For orientation, consider the following solved cases.
CCN1N=C(C)/C(=C\C=C\c2c(C)nn(CC)c2O)C1=O (racemic) [BisEp-C3] ... water-soluble
CC1=NN(c2ccccc2)C(=O)/C1=C/C=C/c1c(C)nn(-c2ccccc2)c1O (racemic) [ED2AP] ... water-soluble
CC1=NN(c2ccccc2)C(=O)/C1=C\c1c(C)nn(-c2ccccc2)c1O [formula (10)] ... poorly soluble in water
CCn1nc(C)c(Cc2c(C)nn(CC)c2O)c1O [BisEp-C1 (H2)] ... water-soluble
CCN1N=C(C)/C(=C/c2c(C)nn(CC)c2O)C1=O [BisEp-C1] ... water-soluble

With those in mind, consider the next molecule.
The molecule listed as Cc1nn(-c2ccccc2)c(O)c1Cc1c(C)nn(-c2ccccc2)c1O [formula (14)] shows solubility in water equal to poorly soluble in water

###

Test: Storage stability in pH7.4-PBS or pure water at 37° C. protected from light, residual rate by HPLC
Type: physicochemical
Conditions: pH 7.4-PBS, 200 μmol/l, 37° C., protected from light, 2 weeks
parameter measured: Residual rate (%) After 2 weeks

CCN1N=C(C)/C(=C\C=C\c2c(C)nn(CC)c2O)C1=O (racemic) ... 93.6

A. CCN1N=C(C)CC1=O [EMPO, reference compound]
B. CC1=NN(c2ccccc2)C(=O)C1 [Edaravone, reference compound]
C. CC1=NN(c2ccccc2)C(=O)/C1=C/C=C/c1c(C)nn(-c2ccccc2)c1O (racemic)
Sort (3 compounds) by Residual rate (%) After 2 weeks: min first. Your task in answering is to list the labels in the requested order. A, B, C
(A: 0.0%, B: 0.2%, C: 91.3%)

###

Assay: Storage stability in pH7.4-PBS or pure water at 37° C. protected from light, residual rate by HPLC
Type: physicochemical
Conditions: pH 7.4-PBS, 200 μmol/l, 37° C., protected from light, 1 week
parameter measured: Residual rate (%) After 1 week

CCN1N=C(C)/C(=C\C=C\c2c(C)nn(CC)c2O)C1=O (racemic) [BisEp-C3] ... 98.7

P. CCN1N=C(C)CC1=O [EMPO, reference compound]
Q. CC1=NN(c2ccccc2)C(=O)/C1=C/C=C/c1c(C)nn(-c2ccccc2)c1O (racemic) [ED2AP]
R. CC1=NN(c2ccccc2)C(=O)C1 [Edaravone, reference compound]
With regard to Residual rate (%) After 1 week, arrange the entries in ascending order, please. Dear reader, please state the labels in the requested order. P, R, Q
(P: 0.0%, R: 31.2%, Q: 96.2%)

###

Experiment: Storage stability in pH7.4-PBS or pure water at 37° C. protected from light, residual rate by HPLC
Assay type: physicochemical
Conditions: Pure water, 200 μmol/l, 37° C., protected from light, 1 week
parameter measured: Residual rate (%) After 1 week

A. CCN1N=C(C)CC1=O [EMPO, reference compound]
B. CC1=NN(c2ccccc2)C(=O)/C1=C/C=C/c1c(C)nn(-c2ccccc2)c1O (racemic)
Please choose the item with the lower Residual rate (%) After 1 week value from this pair: A and B Label of pick, please. A
(A: 6.3%, B: 96.1%)

###

Test: Storage stability in pH7.4-PBS or pure water at 37° C. protected from light, residual rate by HPLC
Type: physicochemical
Conditions: Pure water, 200 μmol/l, 37° C., protected from light, 2 weeks
parameter measured: Residual rate (%) After 2 weeks

For orientation, consider the following solved cases.
CCN1N=C(C)/C(=C\C=C\c2c(C)nn(CC)c2O)C1=O (racemic) ... 88.5
CC1=NN(c2ccccc2)C(=O)C1 [Edaravone, reference compound] ... 80.4

I. CCN1N=C(C)CC1=O [EMPO, reference compound]
II. CC1=NN(c2ccccc2)C(=O)/C1=C/C=C/c1c(C)nn(-c2ccccc2)c1O (racemic)
I need your help: which of the pair I , II has higher Residual rate (%) After 2 weeks? Your answer should be the label attached to the chosen record. II
(II: 89.8%, I: 1.4%)
